Test system: Mus musculus
PROTOCOL: Induction of IL6 secretion in BALB/c mouse serum at 2 ug, iv after 2 hrs relative to control
Assay type: functional
MEASURE: Activity
Simply state the number, no unit and no words.

{"columns": ["MOLECULE", "TEST_SYSTEM", "Activity"],
 "data": [
  ["CCCCCCCCCCCCCCCCCCCCCCCCCC(=O)N[C@@H](CO[C@H]1O[C@H](CO)[C@H](O)[C@H](OS(=O)(=O)[O-])[C@H]1O)[C@H](O)[C@H](O)CCCCCCCCCCCCCC.[Na+]", "Mus musculus", 2.2],
  ["CCCCCCCCCCCCCCC[C@@H](O)[C@H](CO[C@H]1O[C@H](C(=O)O)[C@H](O)[C@H](O)[C@H]1O)NC(=O)CCCCCCCCCCCCC", "Mus musculus", 1.7],
  ["CCCCCCCCCCCCCC[C@@H](O)[C@@H](O)[C@H](CO[C@H]1O[C@H](CO)[C@H](O)[C@H](O)[C@H]1O)NC(=O)CCCCCCCCCCc1ccccc1", "Mus musculus", 5.8],
  ["CCCCCCCCCCCCCC[C@@H](O)[C@@H](O)[C@H](CO[C@H]1O[C@H](CO)[C@H](O)[C@H](O)[C@H]1O)NC(=O)CCCCCCCCCCCCC", "Mus musculus", 1.5],
  ["CCCCCCCCCCCCCCCCCCCCCCCCCC(=O)N[C@@H](CO[C@H]1O[C@H](C(=O)O)[C@H](O)[C@H](O)[C@H]1O)[C@H](O)[C@H](O)CCCCCCCCCCCCCC", "Mus musculus", 4.9]
]}

Inquiry: I have this molecule here, CCCCCCCCCCCCCC[C@@H](O)[C@@H](O)[C@H](CO[C@H]1O[C@H](CO)[C@H](O)[C@H](O)[C@H]1O)NC(=O)CCCCCCCc1ccccc1 , and I need its recorded Activity.
Reply text: 2.8

Inquiry: Subsequent entry: CCCCCCCCCCCCCCCCCCCCCCCCCC(=O)N[C@@H](CO[C@H]1O[C@H](CO)[C@H](O)[C@H](O)[C@H]1O)[C@H](O)[C@H](O)CCc1ccccc1
Reply text: 6.3

Inquiry: Subsequent entry: CCCCCCCCCCCCCCCCCCCCCCCCCC(=O)N[C@@H](CO[C@H]1O[C@H](CO)[C@H](O)[C@H](O)[C@H]1O)[C@H](O)[C@H](O)CCCCCCCCCCCCCC [RGI-7000]
Reply text: 5.5

====

PROTOCOL: Induction of IL10 secretion in human CD161+ CD3+ NKT cells at 10 ug/ml after 18 hrs relative to basal level
Type: functional
MEASURE: Activity

For orientation, consider the following solved cases.
{"columns": ["QUERY_SMILES", "Activity"],
 "data": [
  ["CCCCCCCCCCCCCC[C@@H](O)[C@@H](O)[C@H](CO[C@H]1O[C@H](CO)[C@H](O)[C@H](O)[C@H]1O)NC(=O)CCc1ccc(CC(C)C)cc1", 2.2],
  ["CCCCCCCCCCCCCCCCCCCCCCCCCC(=O)N[C@@H](CO[C@H]1O[C@H](CO)[C@H](O)[C@H](O)[C@H]1O)[C@H](O)[C@H](O)CCCCc1ccccc1", 2],
  ["CCCCCCCCCCCCCCCCCCCCCCCCCC(=O)N[C@@H](CS[C@H]1O[C@H](CO)[C@H](O)[C@H](O)[C@H]1O)[C@H](O)[C@H](O)CCCCCCCCCCCCCC", 0.6]
]}

Switching to the query record.
Inquiry: I have this molecule here, CCCCCCCCCCCCCC[C@@H](O)[C@@H](O)[C@H](CO[C@H]1O[C@H](CO)[C@H](O)[C@H](O)[C@H]1O)NC(=O)CCc1ccc(C(F)(F)F)cc1 , and I need its recorded Activity.
Reply text: 1.7

====

Each entry below lists one item and its recorded Activity value.
PROTOCOL: Induction of GM-CSF secretion in human CD161+ CD3+ NKT cells at 10 ug/ml after 18 hrs relative to basal level
Assay type: functional

For orientation, consider the following solved cases.
{"columns": ["MOLECULE", "RECORDED_VALUE"],
 "data": [
  ["CCCCCCCCCCCCCCCCCCCCCCCCCC(=O)N[C@@H](CO[C@H]1O[C@H](CO)[C@H](O)[C@H](OS(=O)(=O)[O-])[C@H]1O)[C@H](O)[C@H](O)CCCCCCCCCCCCCC.[Na+]", 6.6],
  ["CCCCCCCCCCCCCCCCCCCCCCCCCC(=O)N[C@@H](CO[C@H]1O[C@H](CO)[C@H](O)[C@H](O)[C@H]1O)[C@H](O)[C@H](O)CCCCc1ccccc1", 5.8],
  ["CCCCCCCCCCCCCCCCCCCCCCCCCC(=O)N[C@@H](CO[C@H]1O[C@H](C(=O)O)[C@H](O)[C@H](O)[C@H]1O)[C@H](O)[C@H](O)CCCCCCCCCCCCCC", 2]
]}

Inquiry: I have this molecule here, CCCCCCCCCCCCCC[C@@H](O)[C@@H](O)[C@H](CO[C@H]1O[C@H](CO)[C@H](O)[C@H](O)[C@H]1O)NC(=O)CCc1ccc(C(F)(F)F)cc1 , and I need its recorded Activity.
Reply text: 3.5

Inquiry: Subsequent entry: CCCCCCCCCCCCCCCCCCCCCCCCCC(=O)N[C@@H](CO[C@H]1O[C@H](CO)[C@H](O)[C@H](O)[C@H]1O)[C@H](O)[C@H](O)CCCCCCCCCCCCCC [RGI-7000]
Reply text: 3.5

====

Test system: Mus musculus
PROTOCOL: Induction of MIPbeta secretion in BALB/c mouse serum at 2 ug, iv after 2 hrs relative to control
Assay type: functional
Please respond with Criterion met when measured Activity is strictly beneath 2, and with Criterion not met in all other cases.

Sample answers from the record:
{"columns": ["COMPOUND", "LABEL_VALUE"],
 "data": [
  ["CCCCCCCCCCCCCCCCCCCCCCCCCC(=O)N[C@@H](CO[C@H]1O[C@H](C(=O)O)[C@H](O)[C@H](O)[C@H]1O)[C@H](O)[C@H](O)CCCCCCCCCCCCCC", "Criterion met"],
  ["CCCCCCCCCCCCCCCCCCCCCCCCCC(=O)N[C@@H](CO[C@H]1O[C@H](CO)[C@H](O)[C@H](O)[C@H]1O)[C@H](O)[C@H](O)CCc1ccccc1", "Criterion not met"],
  ["CCCCCCCCCCCCCCCCCCCCCCCCCC(=O)N[C@@H](CO[C@H]1O[C@H](CO)[C@H](O)[C@H](O)[C@H]1O)[C@H](O)[C@H](O)CCCCCCCCCCCCCC [RGI-7000]", "Criterion not met"],
  ["CCCCCCCCCCCCCC[C@@H](O)[C@@H](O)[C@H](CO[C@H]1O[C@H](CO)[C@H](O)[C@H](O)[C@H]1O)NC(=O)CCCCCCCCCCc1ccccc1", "Criterion not met"],
  ["CCCCCCCCCCCCCC[C@@H](O)[C@@H](O)[C@H](CO[C@H]1O[C@H](CO)[C@H](O)[C@H](O)[C@H]1O)NC(=O)CCCCCCCc1ccccc1", "Criterion not met"]
]}

Inquiry: Consider the compound CCCCCCCCCCCCCCCCCCCCCCCCCC(=O)N[C@@H](CO[C@H]1O[C@H](CO)[C@H](O)[C@H](OS(=O)(=O)[O-])[C@H]1O)[C@H](O)[C@H](O)CCCCCCCCCCCCCC.[Na+] . Is its Activity strictly less than 2?
Reply text: Criterion not met

Inquiry: Subsequent entry: CCCCCCCCCCCCCCC[C@@H](O)[C@H](CO[C@H]1O[C@H](C(=O)O)[C@H](O)[C@H](O)[C@H]1O)NC(=O)CCCCCCCCCCCCC
Reply text: Criterion met

Inquiry: Subsequent entry: CCCCCCCCCCCCCC[C@@H](O)[C@@H](O)[C@H](CO[C@H]1O[C@H](CO)[C@H](O)[C@H](O)[C@H]1O)NC(=O)CCCCCCCCCCCCC
Reply text: Criterion met

====

PROTOCOL: Induction of GM-CSF secretion in human CD161+ CD3+ NKT cells at 10 ug/ml after 18 hrs relative to basal level
Type: functional
Classify by measured Activity: rule met if it is equal to or exceeds 3, rule not met if it is smaller.

{"columns": ["QUERY_SMILES", "LABEL_VALUE"],
 "data": [
  ["CCCCCCCCCCCCCCC[C@@H](O)[C@H](CO[C@H]1O[C@H](C(=O)O)[C@H](O)[C@H](O)[C@H]1O)NC(=O)CCCCCCCCCCCCC", "rule not met"],
  ["CCCCCCCCCCCCCC[C@@H](O)[C@@H](O)[C@H](CO[C@H]1O[C@H](CO)[C@H](O)[C@H](O)[C@H]1O)NC(=O)CCc1ccc(CC(C)C)cc1", "rule met"],
  ["CCCCCCCCCCCCCCCCCCCCCCCCCC(=O)N[C@@H](CS[C@H]1O[C@H](CO)[C@H](O)[C@H](O)[C@H]1O)[C@H](O)[C@H](O)CCCCCCCCCCCCCC", "rule not met"],
  ["CCCCCCCCCCCCCCCCCCCCCCCCCC(=O)N[C@@H](CO[C@H]1O[C@H](CO)[C@H](O)[C@H](O)[C@H]1O)[C@H](O)[C@H](O)CCc1ccccc1", "rule met"]
]}

Next:
Inquiry: Activity >= 3 for CCCCCCCCCCCCCC[C@@H](O)[C@@H](O)[C@H](CO[C@H]1O[C@H](CO)[C@H](O)[C@H](O)[C@H]1O)NC(=O)CCCCCCCCCCc1ccccc1 ?
Reply text: rule met

Source of measurements: ChEMBL document CHEMBL1145518
